Can you tell me Inhibition for the items I'm about to list?
- System: Acinetobacter baumannii
- method: Antibacterial activity against Acinetobacter baumannii ATCC 19606 (CO-ADD:GN_034); MIC in CAMBH media using NBS plates, by Resazurin F(560/590)
- Format: functional
- measurement_parameters: Concentration 20 uM, ASSAY_TEST Inhibition of Bacterial Growth, detection method Resazurin, Fluorescence (ex560/em590), MEDIA CAMHB, plate type 384well, CORNING #3640, time 18 hr
Express your answer in %, writing the number without its unit.

Item: `COc1ccc(C(=S)N2CCN(c3ccccc3C)CC2)cc1` | Inhibition: -20.13

Item: `NC(=N\c1ccc(N)cc1)/C(N)=N/c1ccc(N)cc1` | Inhibition: -17.09

Item: `Cc1cnc2c(N)cc(C)c(C)c2c1` | Inhibition: -5.88

Item: `c1ccc(-c2nnc3oc(-c4cccs4)nn23)cc1` | Inhibition: -16.04

Item: `OCc1cc(O)c(CO)nn1` | Inhibition: -1.67

Item: CCCCCCC(C)OC(=O)c1ccccc1C(=O)O (configuration not stated) | Inhibition: -3.64

Item: CC1(c2ccc3ccccc3c2)CCC(=O)O1 (configuration not stated) | Inhibition: -6.13

Item: `CN1CCN(C(=O)Nc2ccc([N+](=O)[O-])cc2)CC1` | Inhibition: 6.21

Item: `Nc1nc(S)c2ncn(C3CCCC3)c2n1` | Inhibition: -8.37

Item: `CCC(=Cc1ccc(CC)cn1)CC` | Inhibition: -14.68

Item: `NC(=O)Oc1cccc(OC(N)=O)c1` | Inhibition: -13.95

Item: `CCOc1ccc(NC(=S)NC(=O)c2ccco2)cc1` | Inhibition: 0.34

Item: `NC(CC(=O)Nc1cc(C(F)(F)F)ccc1Cl)=NO` | Inhibition: -1.74

Item: `CC(=O)[C@H]1CC[C@H]2[C@@H]3CCC4=CC(=O)C=C[C@]4(C)[C@H]3C(=O)C[C@]12C` | Inhibition: -7.04

Item: `O=C1CCCc2cc3c(cc21)CC1(C3)Cc2cc3c(cc2C1)C(=O)CCC3` | Inhibition: -9.78

Item: `CSc1nc(S)c2[nH]c(S)nc2n1` | Inhibition: -13.83

Item: `O=Cc1c[nH]c2ncccc12` | Inhibition: -8.67

Item: `O=C1OCC/C1=C\OCCCO/C=C1\CCOC1=O` | Inhibition: -4.57

Item: `O=[N+]([O-])c1cc(-c2cccnc2)[nH]n1` | Inhibition: -4.27

Item: `c1cncc(-c2nc3ccccc3s2)c1` | Inhibition: 4.56

Item: `CC(=O)CC(=O)Nc1ccc2ccccc2c1` | Inhibition: 10.6

Item: C=C(C)C/N=C/C1(C)CCC(C)=CO1 (configuration not stated) | Inhibition: 0.87

Item: `Oc1ccccc1/N=C/c1c(O)ccc2ccccc12` | Inhibition: -11.56

Item: CC1=NN(c2ccccc2)C(=O)C1C(=S)SC1CC(=O)NC1=O (configuration not stated) | Inhibition: 14.97

Item: `O=P(O)(O)c1cc(-c2ccccc2)oc1-c1ccccc1` | Inhibition: 9.92

Item: `COc1ccc2c(c1)c1ccc3c(c1n2C)C(=O)C=CC3=O` | Inhibition: 3.5

Item: `CC(C)n1cc(C#N)c(N)n1` | Inhibition: -8.48

----------
Can you tell me Inhibition for the items I'm about to list?
- Test system: Staphylococcus aureus
- method: Antibacterial activity against Staphylococcus aureus MRSA ATCC 43300 (CO-ADD:GP_020); MIC in CAMBH media using NBS plates, by Resazurin F(560/590)
- Assay type: functional
- measurement_parameters: Concentration 20 uM, ASSAY_TEST Inhibition of Bacterial Growth, detection method Resazurin, Fluorescence (ex560/em590), MEDIA CAMHB, plate type 384well, CORNING #3640, time 18 hr
Express your answer in %, writing the number without its unit.

Entry `[O-]/[N+](=C\c1ccccc1)CC1(O)CCCCC1` , tested on Staphylococcus aureus, has a reported Inhibition of 12.91

Entry `C=CCNC(S)=NCC` , tested on Staphylococcus aureus, has a reported Inhibition of 0.32

Entry `O=c1c2ccccc2ncn1-c1ccc(Cl)cc1` , tested on Staphylococcus aureus, has a reported Inhibition of 11.71

Entry `O=C(NC(=S)Nc1cccc2c(O)cccc12)c1cccc(Br)c1` , tested on Staphylococcus aureus, has a reported Inhibition of 25.64

Entry `COc1ccc(Nc2cc(Cl)ccc2C(=O)O)cn1` , tested on Staphylococcus aureus, has a reported Inhibition of -1.71

Entry O=[N+]([O-])C1C(c2ccccc2)C12c1ccccc1-c1ccccc12 (configuration not stated) , tested on Staphylococcus aureus, has a reported Inhibition of 1.75

Entry `Nc1ccc(-c2nc3nc(N)nc(N)c3nc2-c2ccc(N)cc2)cc1` , tested on Staphylococcus aureus, has a reported Inhibition of 11.99

----------
- System: Klebsiella pneumoniae
- measurement_parameters: Concentration 20 uM; ASSAY_TEST Inhibition of Bacterial Growth; detection method Absorption (OD600); MEDIA CAMHB; plate type 384well; NBS; CORNING #3640; time 18 hr
- Description: Antibacterial activity against Klebsiella pneumoniae MDR ATCC 70063 (CO-ADD:GN_003); MIC in CAMBH media using NBS plates, by OD(600)
Results with a measured potency or affinity are listed apart.
Can you tell me Inhibition for the items I'm about to list?
Express your answer in %, writing the number without its unit.

Item: `COc1cccc(/C=C/c2nccc3ccccc23)c1OC` | Inhibition: 0.37

Item: `CCOC(=O)Cc1cc(=O)[nH]n(-c2ccccc2)c1=O` | Inhibition: 12.15

Item: `O=C(Nc1nc2ccccc2s1)Nc1ccc([N+](=O)[O-])cc1Cl` | Inhibition: 8.17

Item: `COc1cc(NCc2ccccc2O)c2ncccc2c1` | Inhibition: 7.53

Item: `NC(=S)NC(=O)c1ccccc1` | Inhibition: 14.46

Item: `CCN1CCC(Nc2ccnc3cc(Cl)ccc23)CC1` | Inhibition: 16.53

Item: `O=C(Nc1ccc(Br)cc1)Nc1ccccc1Cl` | Inhibition: 5.62

Item: `CCOc1ccc(Nc2c3ccccc3nc3ccccc23)cc1` | Inhibition: 0.35

Item: CCCCN1C(=O)CC2CCOC21C (configuration not stated) | Inhibition: 9.62

Item: `COC(=O)c1ccc(C(=O)OC)c(O)n1` | Inhibition: 7.35

Item: `CC(C)(C)NC1=NCCNC(c2ccccc2)=C1.CS(=O)(=O)O` | Inhibition: 11.55

Item: CC(=O)OC1COC(OC(C)=O)CO1 (configuration not stated) | Inhibition: 0.6

Item: `Oc1ccc(Nc2ccnc3cc(Cl)ccc23)cc1` | Inhibition: 17.31

Item: `CCOC(=O)c1nc(O)c2c3c(sc2n1)CCCC3` | Inhibition: 5.02

Item: `O=C(O)/C=C\c1cc2c(cc1[N+](=O)[O-])OCO2` | Inhibition: 10.81

Item: `CCOc1nc(OCC)c2cnn(C)c2n1` | Inhibition: 6.34

Item: COC1OC(O)C(NC(=O)C(F)(F)F)CC1O (configuration not stated) | Inhibition: 16.01

Item: `N#Cc1nnn2c1nc(N)c1c(Cl)cccc12` | Inhibition: 14.13

Item: CCOC(=O)C(=O)C1C(=O)Nc2ccccc21 (configuration not stated) | Inhibition: 15.66

Item: `Nc1nc(SCc2ccccc2)sc1C(=O)N1CCCCC1` | Inhibition: 21.18

Item: Cc1ccn2c(C(C)O)nnc2c1 (configuration not stated) | Inhibition: 2.31

Item: `c1ccc2c(c1)Oc1cccc3cccc-2c13` | Inhibition: 8.47

Item: `Cc1ccc(S(=O)(=O)NC(=O)Nc2nccs2)cc1` | Inhibition: 14.17

Item: `CCC1=[N+]([O-])[N+]([O-])=C(c2ccccc2)/C1=N/O` | Inhibition: 8.43

Item: O=C(O)c1ccc(O)c(O)c1 [PROTOCATECHUIC ACID] | Inhibition: 17.43

Item: CN(C)CC1C2CCC(C2)C1O (configuration not stated) | Inhibition: 23.62

Item: `O/N=C(/c1ccccc1)c1ccc2c3c(cccc13)CC2` | Inhibition: 9.85

Item: COc1cccc2c1C(CO)N1C(C#N)C3CC(C(=O)O)C(C1C2)N3C (configuration not stated) | Inhibition: 21.32

Item: CC(=O)c1c(O)c(C)c(O)c2c1OC1=CC(=O)/C(=C(/C)N)C(=O)C12C (configuration not stated) | Inhibition: 14.26

Item: `Clc1cc2c(nn1)Nc1ccccc1S2` | Inhibition: 10.14

Item: Cc1nc(SCC(=O)O)n[nH]1 [TIAZOTIC ACID] | Inhibition: 14.92

Item: CCCc1cc(=O)oc2c3c(c4c(c12)OC(C)(C)C=C4)OC(C)[C@H](C)[C@@H]3O (some centres not stated) | Inhibition: 20.98

Item: `Nc1ccccc1-n1nc2ccc3ccccc3c2n1` | Inhibition: 6.99

Item: `c1ccc(-c2nnc(-c3ccccc3)nn2)cc1` | Inhibition: -4.08

Item: `Nc1nc(N)c(/N=N/c2ccc(S(N)(=O)=O)cc2)c(O)n1` | Inhibition: 23.84

Item: `COc1cc(OC)c2c(=O)cc(-c3cccnc3)oc2c1` | Inhibition: 9.22

Item: `O=C(NC(=S)Nc1ccccn1)c1ccccc1` | Inhibition: 8.04

Item: NC(=O)c1ncn2c(=O)n(CCCl)nnc12 [MITOZOLOMIDE] | Inhibition: 6.17

Item: `CCCCOc1ccc(OC(=O)Nc2cc(Cl)ccc2OC)cc1` | Inhibition: 11.91

Item: CC1(C)OC2CC(=O)OCC23C1CC(=O)C1(C)C3CCC2(C)C(c3ccoc3)OC(=O)C3OC321 (configuration not stated) | Inhibition: 8.88

Item: `CC(=O)Nc1cccc(NC(C)=O)n1` | Inhibition: 13.05

Item: `Cc1nc(N)nc(Cl)c1CCC1OCCO1` | Inhibition: 6.29

Item: `O=C1c2ccccc2C(=O)c2c1cccc2-n1nnc2ccccc21` | Inhibition: 0.02

Item: `Cc1ccccc1NC(=O)C(=O)Nc1ccccc1C` | Inhibition: -3.39

Item: `Clc1c(Cl)c(Cl)c2[nH]nnc2c1Cl` | Inhibition: 1.32

Item: `O=C(NC(=S)Nc1cc(Cl)ccc1O)c1cccc(Br)c1` | Inhibition: 14.73

Item: `Cc1nnc(-n2cccc2)s1` | Inhibition: -0.01

Item: `Cc1oc2c(c(C)nn2-c2ccccc2)c(=O)c1Cl` | Inhibition: 9.65

Item: CC(=O)Oc1ccc(C(c2ccc(OC(C)=O)cc2)c2ccccn2)cc1 [BISACODYL] | Inhibition: 14.3

Item: `O=c1cc2oc3cc(O)c(O)cc3c(-c3ccccc3O)c-2cc1O` | Inhibition: 16.39

Item: `Cc1ccncc1C(N)=O` | Inhibition: 14.09

Item: `Oc1cc(-c2ccc(Cl)cc2)nc2ccccc12` | Inhibition: 16.07
